Please provide measured IC50 for the entries that follow.
Target: SIRT5 (Homo sapiens, UniProt Q9NXA8)
Sequence (Q9NXA8 37-310): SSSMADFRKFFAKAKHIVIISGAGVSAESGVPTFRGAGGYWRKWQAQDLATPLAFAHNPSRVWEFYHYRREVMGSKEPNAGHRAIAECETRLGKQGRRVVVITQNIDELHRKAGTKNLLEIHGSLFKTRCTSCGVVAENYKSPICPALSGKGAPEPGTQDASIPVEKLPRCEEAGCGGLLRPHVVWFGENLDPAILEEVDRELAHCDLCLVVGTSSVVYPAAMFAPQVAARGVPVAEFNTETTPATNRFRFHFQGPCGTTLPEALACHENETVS
Provide only the numeric value, understood in µM.

Q: // lookup IC50 for CCn1c(=O)c2[nH]c(SSc3nc4c([nH]3)c(=O)n(CC)c(=O)n4CC)nc2n(CC)c1=O [Compound 1]
Result: 0.42

Q: Check CCn1c(=O)n(CC2CCOCC2)c(=O)c2[nH]c(SSc3nc4c([nH]3)c(=O)n(CC3CCOCC3)c(=O)n4CC)nc21 [Compound 13] too.
Result: 0.5

Q: Check CCn1c(=O)n(CCc2ccc(F)cc2)c(=O)c2[nH]c(SSc3nc4c([nH]3)c(=O)n(CCc3ccc(F)cc3)c(=O)n4CC)nc21 [Compound 16] too.
Result: 0.84
